- Test system: SK-MEL-5 melanoma
- assay.name: NCI tumour cell line growth inhibition, 48 h
measurement.type: TGI

Cc1ccc(C2SC(N)=Nc3c2c(C)nn3C(=O)c2ccccc2O)cc1 (stereo unspecified) ... > 10 µM
S=C1CSc2c(ccc3ccccc23)N1 ... > 100 µM
Cc1ccc2c(c1)C(C)Cc1c(Cl)ncnc1N2C (stereo unspecified) ... 3.41 µM
Nc1ccc(CCSSCCc2ccc(N)cc2)cc1 ... > 52.7 µM

Exercise: Item `Nc1[nH]c(=S)c2c(N)n[nH]c2c1C(=O)Nc1ccccc1` with SK-MEL-5 melanoma - TGI?
Key: > 100 µM

Exercise: // next record C[n+]1c2ccccc2c(NC(CS)C(=O)O)c2ccccc21 (stereo unspecified)
Key: 44.6 µM

----------
- Test system: CAKI-1 renal
- assay.name: NCI tumour cell line growth inhibition, 48 h; in the data active = GI50 below about 0.43 µM; inactive = the rest
Respond using exactly one of the listed classes: active, inactive

Exercise: For this compound, state the assay outcome: O=C(c1ccccc1)C(Br)C(Br)c1cccc([N+](=O)[O-])c1 (stereo not drawn)
Key: inactive

Exercise: // next record `O=P(CCCCP(=O)(c1ccccc1)c1ccccc1)(c1ccccc1)c1ccccc1.[Cl][Sn]([Cl])([c]1ccccc1)[c]1ccccc1`
Key: inactive

Exercise: // next record `COC(=O)C1=C(C(=O)OC)SC(=C(Cl)C(=S)Nc2ccccc2O)S1`
Key: inactive

Exercise: // next record `CNCCNc1c2c(c(NCCNC)c3[nH]ccc13)C(=O)c1ccccc1C2=O`
Key: active

----------
- Tested on: MOLT-4 leukemia
- assay.name: NCI tumour cell line growth inhibition, 48 h
measurement.type: GI50

Use the examples below as a reference point.
CN(C)CC1C(=O)O[C@H]2[C@H]1CC/C(COC(=O)c1cc3ccccc3[nH]1)=C\CC[C@@]1(C)O[C@@H]21 (some centres undefined) ... 1.98 µM
Clc1ccc2nnnn2n1 ... 3.26 µM
O=C(Nc1ccc2[nH]c(=S)sc2c1)Nc1ccccc1F ... 22.4 µM
CCC[CH2][Sn]([CH2]CCC)([CH2]CCC)[O]C(=O)c1ccc(Cl)cc1Cl ... 0.215 µM
Cc1cc(NCc2cc(Nc3ccnc4cc(Cl)ccc34)ccc2F)nc(N2CCN(C)CC2)n1 ... 1.39 µM
Oc1ccccc1CNCC12CC3CC(CC(C3)C1)C2 ... 24.5 µM

Exercise: Consider the compound shown here: `COc1ccc(S(=O)(=O)Nc2cc(/C=C\c3cc(OC)c(OC)c(OC)c3)ccc2OC)cc1` What is its recorded GI50?
Key: 0.388 µM

Exercise: // next record `COc1cc(-n2cc(-c3ccc(Cl)cc3)nc2SCc2cccc(C#N)c2)cc(OC)c1OC`
Key: 37.5 µM

Exercise: // next record CCCCCCCCCCC(C(O)c1ccccc1)N1CCCCC1 (centres undefined)
Key: 2.23 µM

----------
- Tested on: HL-60(TB) leukemia
- assay.name: NCI tumour cell line growth inhibition, 48 h
measurement.type: TGI

Use the examples below as a reference point.
COC(=O)[C@]12CC=C3O[C@@H]4OC5(CCCCC5)O[C@@H]4C3[C@@H]1C(=O)CCC2=O (some centres undefined) ... > 100 µM
COc1ccc(S(=O)(=O)N/N=C/c2cc(I)cc([N+](=O)[O-])c2O)cc1OC ... 57.5 µM
CCOc1cc2c(cc1O)CC[C@@H]1[C@@H]2CC[C@]2(C)C(N)CC[C@@H]12 (some centres undefined) ... > 25.1 µM

Could you now look at the following compound, please?
Exercise: Consider the compound shown here: `C#C[C@]1(O)CC[C@H]2[C@@H]3CCC4=C/C(=N/NC(=O)c5cccc6cc7ccccc7nc56)CC[C@@H]4[C@H]3CC[C@@]21CC` What is its recorded TGI?
Key: > 100 µM

Provenance of the data: PubChem BioAssay (NCI)
